The values you see were collected from PubChem BioAssay AID743279.

# assay comment: qHTS for Inhibitors of Inflammasome Signaling: IL-1-beta AlphaLISA Primary Screen; further: on the % scale 0 is the no-effect control and ±100 the full control effect
# test settings: THP-1 LPS/ATP IL-1B secretion, 16 h; at 57.5 µM, stronger effect = lower value
The campaign covered roughly 360,000 compounds. About 17,000 (4.7%) were called active. Another 5% or so got no clear call; they are omitted. Many of the other results were omitted from the sample, so actives are more common in it than they were.

| compound | activity change, % |
| --- | --- |
| C=CCN1CCN(c2ccncc2S(=O)(=O)N2CCN(C)CC2)CC1 | -7.51 |
| CCCCN(C(=O)c1cccc(N2C(=O)c3ccccc3C2=O)c1)c1c(N)n(CCCC)c(=O)[nH]c1=O | 13 |
| CS(=O)(=O)/C(C#N)=C/c1cccn1S(=O)(=O)c1ccc([N+](=O)[O-])cc1 | -25.1 |
| COc1cccc(/C=N\Nc2nncc(-c3ccccc3)n2)c1 | -16.6 |
| C[C@@H]1CN([C@@H](C)CO)C(=O)CCCn2cc(nn2)CO[C@H]1CN(C)S(=O)(=O)c1ccc(-n2cccn2)cc1 | -5.6 |
| CC1=C(C(=O)N(C(C)C)C(C)C)CC(CC(=O)NCC2CCCCC2)C(=O)N1Cc1ccccc1 (stereo not given) | -28.7 |
| CC(=O)Nc1ccc(NC(=O)COc2ccc(S(=O)(=O)NC(C)c3ccccc3)cc2)cc1 (stereo not given) | 18.3 |
| O=C(Cn1ccc([N+](=O)[O-])n1)NCc1cccs1 | 5.04 |
| CSc1ncnc2c1ncn2CCCNCc1cccs1 | 19.3 |
| N#Cc1ccc(-c2nc3c(Cl)cc(C(F)(F)F)cn3c2Cc2ccccc2C(F)(F)F)cc1 | 23.1 |

---

# assay comment: qHTS for Inhibitors of Inflammasome Signaling: IL-1-beta AlphaLISA Primary Screen
# test settings: THP-1 LPS/ATP IL-1B secretion, 16 h; at 57.5 µM
# Text: Inflammasomes are a set of intracellular multi-protein complexes that enable autocatalytic activation of inflammatory caspases and drive the innate immune response to counter harmful agents. […] A qHTS assay, based on AlphaLISA technology, was developed to screen the Molecular Libraries Small Molecule Repository (MLSMR) to look for novel inflammasome inhibitors. The assay detects IL-1B using AlphaLISA anti-IL-1B acceptor and donor beads. […]
About 17,000 (4.7%) of roughly 360,000 compounds were called active. Roughly 5% stayed inconclusive and do not appear here. Rule as the data show it: active = activity change below about -50%; inconclusive = mostly about -30% to -49%; inactive = weaker than that. The sample as a whole holds a higher share of actives than the screen did.
Outcomes: Y for active, N for inactive

| molecule | category |
| --- | --- |
| COc1ccc(NS(=O)(=O)c2ccc(F)cc2F)cn1 | N |
| CCC(=O)Nc1nc(OC)cc(OC)n1 | N |
| C[C@H]1CN([C@@H](C)CO)C(=O)c2cc(-c3cccc(F)c3)cnc2O[C@@H]1CN(C)S(C)(=O)=O | N |
| COc1ccc(Cc2nnc(N/N=C/c3ccccc3O)[nH]c2=O)cc1OC | Y |
| COc1cc(OC)nc(S(C)(=O)=O)n1 | Y |
| O=C1Nc2ccccc2-n2nnnc2C1N1CCN(c2cccc(C(F)(F)F)n2)CC1 (stereo unspecified) | N |

---

# assay comment: qHTS for Inhibitors of Inflammasome Signaling: IL-1-beta AlphaLISA Primary Screen
# test settings: THP-1 LPS/ATP IL-1B secretion, 16 h; at 57.5 µM, stronger effect = lower value
The campaign covered roughly 360,000 compounds. About 17,000 (4.7%) were called active. About 5% were inconclusive and are not listed. Many of the other results were omitted from the sample, so actives are more common in it than they were.
activity change for assorted molecules
value type: activity change (%)

| query smiles | value type | value |
| --- | --- | --- |
| CCOc1ccc(CCN2C(=S)N([C@@H](CC(C)C)CN3CCC[C@@H]3CN3C(=S)NC[C@@H]3Cc3ccc(O)cc3)C[C@@H]2Cc2ccc(O)cc2)cc1 | activity change | -64.1 |
| CC(C)C[C@H]1CN([C@@H](CC(C)C)CN2CCC[C@@H]2CN2C(=O)C(=O)NC[C@@H]2Cc2ccccc2)C(=O)C(=O)N1CCc1ccccc1 | activity change | -63.4 |
| COc1ccccc1NC(=O)/C=C/C(N)=O | activity change | -100 |
| COc1ccccc1NC(=S)NC(=O)C(C)C | activity change | 3.02 |
| CCOc1ccc(CCN2C(=O)C(=O)N([C@@H](CC(C)C)CN3CCC[C@H]3CN3C(=O)C(=O)NC[C@@H]3Cc3ccccc3)C[C@@H]2CC(C)C)cc1 | activity change | -1.26 |
| CCOc1ccc(CCN2C(=O)C(=O)N([C@@H](Cc3ccc(O)cc3)CN3CCC[C@H]3CN3C(=O)C(=O)NC[C@@H]3CC(C)C)C[C@@H]2Cc2ccccc2)cc1 | activity change | 13.9 |
| COC(=O)C[C@H]1C[C@@H]2c3cc(NC(=O)Nc4ccccc4)ccc3O[C@@H]2[C@@H](CO)O1 | activity change | 9.89 |

---

# assay comment: qHTS for Inhibitors of Inflammasome Signaling: IL-1-beta AlphaLISA Primary Screen
# test settings: THP-1 LPS/ATP IL-1B secretion, 16 h; at 57.5 µM, stronger effect = lower value
The campaign covered roughly 360,000 compounds. About 17,000 (4.7%) were called active. Inconclusive results (about 5%) are left out. Shown is part of a subset that was picked to be rich in actives.
Listing of entries alongside the reported activity change.

| molecule | activity change [%] |
| --- | --- |
| O=C(Nc1cccc(-c2nc3ncccc3o2)c1)c1ccco1 | -57 |
| CC(C)(C)NC(=O)CN(Cc1cccs1)C(=O)CNS(=O)(=O)c1ccccc1 | -55.8 |
| CCC(C)(C)NC(=O)CN(Cc1cccs1)C(=O)CNS(=O)(=O)c1ccc(F)cc1 | 4.73 |
| O=C(NCc1ccccc1)C1C(=O)N(Cc2ccccc2)C(=O)C1C1(O)CCCC1 (stereo not given) | -0.107 |
| COc1ccccc1NC(=O)Nc1nnc(Cc2ccc(F)cc2)s1 | 28.6 |

---

# assay comment: qHTS for Inhibitors of Inflammasome Signaling: IL-1-beta AlphaLISA Primary Screen
# test settings: THP-1 LPS/ATP IL-1B secretion, 16 h; at 57.5 µM, stronger effect = lower value
Hit rate of the full screen: of about 360,000 compounds, about 17,000 (4.7%) were called active. About 5% were inconclusive and are not listed. This is one part of a sample in which actives are shown more often than they occur.
value type: activity change (%)

| compound | value type | value |
| --- | --- | --- |
| COc1ccc(Cn2c(=O)oc3ccccc32)cc1 | activity change | -4.96 |
| COc1ccc(Cn2c(-c3ccc(Cl)cc3)c[n+]3ccccc23)cc1 | activity change | -79.9 |
| COc1ccccc1C(=O)Nn1c(-c2cccs2)nc2ccccc2c1=O | activity change | -3.33 |
| NC(=O)C1(N2CCCCC2)CCN(C2CC(=O)N(Cc3ccc(N4CCCC4=O)cc3)C2=O)CC1 (stereo unspecified) | activity change | -8.36 |
| CCn1c(C)cc(=O)cc1-c1ccc(Cl)cc1 | activity change | 12.5 |
| O=C(Nc1nnc(-c2ccccc2)o1)c1cc(-c2cccs2)nc2ccccc12 | activity change | 23 |

---

Overview of recorded activity change for various compounds
# assay comment: qHTS for Inhibitors of Inflammasome Signaling: IL-1-beta AlphaLISA Primary Screen
# test settings: THP-1 LPS/ATP IL-1B secretion, 16 h; at 57.5 µM, stronger effect = lower value
About 17,000 (4.7%) of roughly 360,000 compounds were called active. Another 5% or so got no clear call; they are omitted. The sample holds actives, similar compounds and a random draw of the others, so the mix is not that of the screen.

| compound | scale unit | activity change |
| --- | --- | --- |
| Cc1cc(/C=C(/C#N)C(=O)Nc2ccc(Cl)cc2)c(C)n1-c1cccnc1 | % | -3.14 |
| COc1cc(/C=C2\SC(=O)NC2=O)ccc1OCc1ccc(Cl)nc1 | % | 11.8 |
| COc1cc(OC)c(C(=O)NNC(=O)c2ccc(NS(=O)(=O)c3cccs3)cc2)cc1OC | % | -0.853 |
| CCCCCCN1C[C@H](O)[C@@H](n2cc(C3CC3)nn2)C[C@@H]1c1ccc(Cl)cc1 | % | 82 |
| O=C(c1ccc(N2CCCC2=O)cc1)N1CCN(c2ccc(C(F)(F)F)cc2[N+](=O)[O-])CC1 | % | -8.61 |
| C#CCOc1ccc(/C=C2/C(=O)ON=C2C)cc1OCC | % | -87.9 |
| COc1cc(/C=N/N2CCN(c3ccccc3)CC2)ccc1OC(C)=O | % | -4.61 |
| O=C(NCc1cccc(CNC(=O)Nc2cccc(O)c2)c1)Nc1cccc(O)c1 | % | -13 |
| COc1cc(/C=C2/C(=O)ON=C2C)ccc1OCc1cccc(F)c1 | % | -6.27 |
| O=C(CSc1ccccc1)Nc1ccc(C(=O)Nc2cccc(O)c2)cc1 | % | 3.28 |
| CCCCCCNS(=O)(=O)c1ccccc1Br | % | 14 |
| C=CCOc1ccc(/C=C2/C(=O)ON=C2C)cc1OCC | % | -98.7 |
| CN1OC[C@@H]2CN(S(=O)(=O)c3cccc(C(F)(F)F)c3)[C@H](c3ccc(-c4cc5ccccc5o4)cc3)C[C@@H]21 | % | -0.573 |
| CCCCCCCCNS(=O)(=O)CCNC1CCCCC1 | % | -65.1 |
| C/C(=C\C(=O)c1ccccc1)Nc1cccc(O)c1 | % | -52.1 |
| C/C(=C\C(=O)c1cccnc1)Nc1ccc(C)c(C)c1 | % | -17.1 |
| CCOC(=O)c1cc2cc3ccccc3cc2oc1=O | % | -12.5 |
| C=CCOc1ccc(/C=N/NC(=O)C(C)Sc2ccccn2)cc1OCC (stereo not drawn) | % | -1.69 |
| COCCCn1cc(CN2CC(N(C)C)CS2(=O)=O)nn1 (stereo not drawn) | % | 21.9 |
| CC(=O)N/C(=C\c1ccc(F)cc1)C(=O)NC(Cc1ccccc1)C(=O)O (stereo not drawn) | % | 41.6 |
| CCCCNS(=O)(=O)CCNCc1ccccc1OC | % | 3.56 |
| COc1ccccc1C(=O)NC(CCSC)C(=O)N1CCN(C/C=C/c2ccccc2)CC1 (stereo not drawn) | % | -8.53 |
| COc1ccc(C(=O)C2CCCN(Cc3cccn3-c3ccccn3)C2)c(C)c1 (stereo not drawn) | % | -99.7 |
